Values were extracted from ChEMBL document CHEMBL5442219.

Provide the reported inhibition of each item.
- system tested: Histamine H2 receptor (Homo sapiens)
- details: Compound concentration 10 µM
- Description: PDSP Primary Binding target: HRH2 - Compounds are tested at 10 uM concentration, plate are incubated at room temperature in the dark for 90 minutes. Reaction are stopped by vacuum filtration onto 0.3% polyethyleneimine soaked filter mats using Filtermate harvester. Scintilation cocktail is then melted onto microwave-dried filters on a hot plate and the radio activity is counted in Microbia counter.
Numbers only, in %.

| compound | quantity unit | inhibition |
| --- | --- | --- |
| C[C@H](CO)Nc1nc(SCc2cccc(Cl)c2F)nc2[nH]c(=O)sc12 | % | 40 |
| COc1ccc(C2(O)OC(=O)C(c3ccc4c(c3)OCO4)=C2Cc2cc(OC)c(OC)c(OC)c2)cc1 (centres undefined) | % | 24.4 |

Batch: inhibition for all items listed.
1. CC(C)Oc1ccccc1C(=O)Nc1ccccc1C(=O)Nc1cccc(S(=O)(=O)C(F)(F)F)c1
2. CO[C@@H]1COCC[C@@H]1N[C@@H]1CC[C@@](C(=O)N2CCc3ncc(C(F)(F)F)cc3C2)(C(C)C)C1

1: 36; 2: 14.9

Look at each compound and report its inhibition.
1. O=C(O)C1CN(Cc2ccc(-c3nc4cc(Cc5ccccc5F)ccc4s3)c(F)c2)C1
2. CCCCCCCCCCCCCCCCOC[C@H](COP(=O)([O-])OCC[N+](C)(C)C)OC(C)=O
3. COc1cccc([C@@H](C)NCCCc2ccccc2Cl)c1
4. N#Cc1c(O)nc(SCc2cccc(F)c2F)nc1C1CC1
5. Cc1csc2c(N[C@@H](C)CN3CCN(S(=O)(=O)c4ccc(Cl)c(Cl)c4)CC3)ncnc12

1. 1.06
2. 4.45
3. 72.6
4. 6.35
5. 45.2

---

- system tested: Alpha-1B adrenergic receptor (Homo sapiens) (UniProt P35368)
- Sequence (P35368 whole entry): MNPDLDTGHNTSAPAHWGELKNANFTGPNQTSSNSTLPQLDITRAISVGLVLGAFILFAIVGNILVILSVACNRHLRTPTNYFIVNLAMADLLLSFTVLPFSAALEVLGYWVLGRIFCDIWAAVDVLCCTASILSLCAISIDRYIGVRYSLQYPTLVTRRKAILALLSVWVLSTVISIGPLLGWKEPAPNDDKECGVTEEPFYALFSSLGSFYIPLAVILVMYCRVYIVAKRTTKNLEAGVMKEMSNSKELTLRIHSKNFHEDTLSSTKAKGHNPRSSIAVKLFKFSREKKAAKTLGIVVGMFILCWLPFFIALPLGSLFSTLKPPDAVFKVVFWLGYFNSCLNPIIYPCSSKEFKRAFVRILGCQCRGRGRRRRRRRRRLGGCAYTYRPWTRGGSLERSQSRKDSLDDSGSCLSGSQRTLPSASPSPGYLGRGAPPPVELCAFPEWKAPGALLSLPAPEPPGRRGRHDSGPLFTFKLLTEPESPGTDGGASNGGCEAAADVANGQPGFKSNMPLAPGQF
- details: Compound concentration 10 µM; call rule not given here
Outcomes you can answer with include only these: active, inactive

Would you please look over these solved cases?
| compound | system tested | group label |
| --- | --- | --- |
| N#Cc1c[nH]c2c(C(=O)N3CCN(CCc4ccc(F)cc4)CC3)cccc12 | Alpha-1B adrenergic receptor (Homo sapiens) (UniProt P35368) | inactive |
| CN1C2CCC1CC(OC(c1ccc(F)cc1)c1ccc(F)cc1)C2 (stereo not given) | Alpha-1B adrenergic receptor (Homo sapiens) (UniProt P35368) | active |
| N#Cc1c(N)nc(SCC(N)=O)c(C#N)c1-c1ccc(OCC2CC2)cc1 | Alpha-1B adrenergic receptor (Homo sapiens) (UniProt P35368) | inactive |
| CC1CCN(CC[C@H]2CCCN2S(=O)(=O)c2cccc(O)c2)CC1 | Alpha-1B adrenergic receptor (Homo sapiens) (UniProt P35368) | inactive |
| Cc1nc2sccn2c(=O)c1CCN1CCC(=C(c2ccc(F)cc2)c2ccc(F)cc2)CC1 | Alpha-1B adrenergic receptor (Homo sapiens) (UniProt P35368) | active |

Check the results log: what was the call for Cc1cc(C(=O)N2Cc3cnn(C)c3Nc3ccccc32)ccc1CNC(=O)N1CCC[C@H]1C(=S)N1CCCN(C)CC1 ?
inactive

Given COC(=O)[C@H]1[C@H]2C[C@H]3c4[nH]c5ccccc5c4CCN3C[C@H]2CC[C@@H]1O , state the outcome it received in this test.
active

How was CCCCCNC(=O)NS(=O)(=O)c1cc([N+](=O)[O-])ccc1NC1CCCCC1 classified in this test?
inactive

// param item: CCCNS(=O)(=O)Nc1ncnc(OCCOc2ncc(Br)cn2)c1-c1ccc(Br)cc1 ; yields the recorded call
inactive

For Nc1nc(NCCc2ccc(O)cc2)nc2nc(-c3ccco3)nn12 , which call appears in the assay record?
inactive

What is the recorded call for this compound in the test? CC(C)Oc1ccccc1C(=O)Nc1ccccc1C(=O)Nc1cccc(S(=O)(=O)C(F)(F)F)c1
inactive

What is the recorded call for this compound in the test? N#Cc1cccc(C(=O)Nc2cc(-c3ccccc3)nn2-c2ccccc2)c1
inactive

Look up the recorded call for COc1ccccc1N1CCN(CCCCNC(=O)c2ccc3ccccc3c2)CC1 in this test.
active

State the result this test recorded for CCc1nn(CCCN2CCN(c3cccc(Cl)c3)CC2)c(=O)n1CCOc1ccccc1 .
active

Which outcome was entered for the compound NCCc1c[nH]c2ccc(C(N)=O)cc12 in this test?
inactive

For COc1cccc([C@H](O)C2CCN(CCc3ccc(F)cc3)CC2)c1OC , which call appears in the assay record?
active
